# Target: HLA-B*44:02
# Measurement Description: IEDB peptide-MHC binding, purified MHC/competitive/fluorescence; filed as Kd, often an IC50 or EC50 that approximates it; bounds were set here for any values at or beyond the usual limits of such assays
# Measurement Conditions: source organism: Entamoeba dispar SAW760
pKd: −log10 of the molar value.
Assay Endpoint: pKd

>>> result("SQYDPKELL")
"≤ 5.30"

====

# Target: HLA-A*03:01
# Measurement Description: IEDB peptide-MHC binding, purified MHC/competitive/fluorescence; filed as Kd, often an IC50 or EC50 that approximates it; bounds were set here for any values at or beyond the usual limits of such assays
# Measurement Conditions: source organism: Orthohantavirus tulaense
Assay Endpoint: Kd (µM)

>>> quantitative_result("ILMARYMSK")
0.0628
